Assay: PTR-MS headspace release with various non-aqueous liquids (diols) at 0.05:100 (Example 3)
Format: physicochemical
Details: non-aqueous liquid propylene glycol; ratio 0.05:100; diluted in water
Protocol: […]. The flavoring was then diluted in water for analysis. […] A variety of non-aqueous liquids were evaluated, including 1,4-butandiol; 1,7-heptandiol; 1,3-butandiol, propylene glycol, and 1,3-propanediol. Samples were analyzed by PTR-MS as described in Example 1. Percent suppression was calculated by the following formula: (I1-3-diol−Ialternate diol)/Ialternate diol×100.
Listing: PTR-MS headspace release in Propylene glycol of selected molecules

Consider the worked cases shown below.
CCCC(=O)OCC [Ethyl butyrate]: 40.20
CCCCCCCCCC(=O)O [Decanoic acid]: 0.25
C=C(C)[C@H]1CC=C(C)CC1 [Limonene]: 6.55
O=Cc1ccccc1 [Benzaldehyde]: 136.25

input: Using the record for CCCCCCCC=O [Octanal] , report its PTR-MS headspace release in Propylene glycol.
output: 11.95

input: Would you kindly share the measured PTR-MS headspace release in Propylene glycol for CCCCCCO [Hexanol] ?
output: 0.37

input: What PTR-MS headspace release in Propylene glycol value was documented for this molecule, CC(C)CC=O [Isovaleraldehyde] ?
output: 12.51

----------
Assay: PTR-MS real-time headspace release, watermelon flavor model in water (Example 1)
Format: physicochemical
Settings: Sample B (1,3-propanediol) relative to Sample A (PG)
Where a name gives a salt, the structure may show the parent alone.
metricName: Percent Release Difference (%)
Please state the figure in %; there is no need to write the unit.

Here's what some known entries look like.
COc1cc(C=O)ccc1O [Vanillin]: 3.4
CCO [Ethanol]: 10.5
CCOC=O [Ethyl formate]: −17.5
CCC(C)COC(C)=O (stereo not drawn) [2-methylbutyl acetate]: −19.5
CCCC(=O)OCC [Ethyl butyrate]: −46.9

Then this compound:
input: What value of Percent Release Difference has been recorded for this entry: O=CCc1ccccc1 [Phenyl acetaldehyde]
output: −2.5

----------
Assay: PTR-MS headspace release in neat solvent, solvent/solvent experiment (Example 5)
Format: physicochemical
Parameters: key: “Z” indicates that 1,3-propanediol had higher equilibrium maximum (meaning more of the flavor was released in 1,3-propanediol); “P” indicates that propylene glycol had higher equilibrium maximum; “-” indicates no statistical difference (95% significance) between the two samples
Settings: 1,3-propanediol versus propylene glycol as sole solvent; 1.5 hrs equilibration; 95% significance
metricName: Release Differences

Below, 5 compounds whose answers are already recorded.
CCCCOC(=O)CCC [Butyl butyrate]: Z
CCCCCCO [Hexanol]: Z
CC=O [Acetaldehyde]: Z
O=Cc1ccccc1 [Benzaldehyde]: P
CC(=O)O [Acetic acid]: P

input: Which Release Differences is reported for this compound? C=C(C)[C@H]1CC=C(C)CC1 [Limonene]
output: Z

input: For the compound Cc1nc(C)c(C)nc1C [Tetramethyl pyrazine] , what Release Differences is on record?
output: Z

input: GET /values?readout=Release Differences&item= CCCCCCCCO [Octanol]
output: P

input: What value of measured Release Differences is listed for CCCC(=O)OCC [Ethyl butyrate] ?
output: Z

----------
Test: PTR-MS headspace release at various flavor compound to 1,3-propanediol or PG ratios (Example 2)
Assay type: physicochemical
Details: flavor/1,3-propanediol ratio of 0.05:100
metricName: effect of 1,3-propanediol on release

CCCC(=O)O [Butyric acid]: minimal effect
CCCCCCCCCC(=O)O [Decanoic acid]: minimal effect
